Value source: the supplement of paper PMC10065799

assay-target: Jak2 (UniProt O60674)
Sequence (O60674 whole entry, looked up): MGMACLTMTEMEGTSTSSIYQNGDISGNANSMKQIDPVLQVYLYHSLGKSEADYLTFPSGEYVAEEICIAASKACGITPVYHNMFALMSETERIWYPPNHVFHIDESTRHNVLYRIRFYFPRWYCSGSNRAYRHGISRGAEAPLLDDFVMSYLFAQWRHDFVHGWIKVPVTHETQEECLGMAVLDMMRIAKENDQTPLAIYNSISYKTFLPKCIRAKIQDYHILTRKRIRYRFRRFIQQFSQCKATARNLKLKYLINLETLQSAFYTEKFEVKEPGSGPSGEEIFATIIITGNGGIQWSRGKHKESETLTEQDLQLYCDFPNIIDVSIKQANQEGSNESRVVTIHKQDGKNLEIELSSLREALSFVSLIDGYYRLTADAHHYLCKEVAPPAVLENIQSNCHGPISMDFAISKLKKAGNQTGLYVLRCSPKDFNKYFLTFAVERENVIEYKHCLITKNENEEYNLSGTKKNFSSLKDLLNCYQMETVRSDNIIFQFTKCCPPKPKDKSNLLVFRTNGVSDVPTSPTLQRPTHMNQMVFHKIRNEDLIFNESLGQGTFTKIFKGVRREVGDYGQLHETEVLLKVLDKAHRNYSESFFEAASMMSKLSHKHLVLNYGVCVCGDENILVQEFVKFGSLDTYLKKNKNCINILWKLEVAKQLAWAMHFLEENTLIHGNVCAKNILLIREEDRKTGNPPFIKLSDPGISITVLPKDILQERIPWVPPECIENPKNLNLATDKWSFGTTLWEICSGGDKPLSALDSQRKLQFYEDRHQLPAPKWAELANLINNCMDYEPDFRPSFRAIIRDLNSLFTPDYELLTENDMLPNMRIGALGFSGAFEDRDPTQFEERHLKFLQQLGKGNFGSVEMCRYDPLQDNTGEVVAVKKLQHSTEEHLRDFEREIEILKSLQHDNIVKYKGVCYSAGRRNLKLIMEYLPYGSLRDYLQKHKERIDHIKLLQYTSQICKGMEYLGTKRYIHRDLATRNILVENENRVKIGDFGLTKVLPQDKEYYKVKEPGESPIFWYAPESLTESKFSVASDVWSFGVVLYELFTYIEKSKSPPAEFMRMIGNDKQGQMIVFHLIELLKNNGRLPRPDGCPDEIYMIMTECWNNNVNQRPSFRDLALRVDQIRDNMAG
test: phosphorylation enrichment, bacterial display (enrichment ratio); higher = better substrate or ligand; peptides without Tyr show the background
measured-endpoint: phosphorylation enrichment
Write the value as a bare number.

Here are 6 sequences together with their reported answers.
| chain | phosphorylation enrichment |
| --- | --- |
| IRTIDYRFTVS [IDS_Y497_W502S_YF] | 0.989 |
| YGMQLYQKYMH [GRB14_Y347_N349K] | 0.561 |
| EEAAGYAQESQ [CAMKV_Y491] | 1.2 |
| STILLYHIMAW [GPR143_Y157] | 1.89 |
| WYQTKYEELQV [KRT6B_Y360_I365V] | 1.02 |
| PLGPLYASSNT [INSR_Y992_P997T] | 0.723 |

Read the entry QTPVLYAMLYH [MPZ_Y220_D224Y] and write its reported phosphorylation enrichment.
1.89

Read the entry NVSILYTASQA [CTNNA1_Y222_P219S] and write its reported phosphorylation enrichment.
0.95

Read the entry DAVKHYMQFQK [CNGA2_Y395_R399Q] and write its reported phosphorylation enrichment.
0.461

Read the entry PIAPVYAPSMV [ACAT1_Y331_A333P] and write its reported phosphorylation enrichment.
0.738

Read the entry GFVEDYRPPFF [ACVRL1_Y421_I417F_YF] and write its reported phosphorylation enrichment.
0.879

Read the entry YDDGKYVYVVT [RPS6KA3_Y488] and write its reported phosphorylation enrichment.
1.34

Read the entry IMAFFYMCDRA [CASD1_Y382_YF] and write its reported phosphorylation enrichment.
1.64

* * *

assay-target: MERTK (UniProt Q12866)
Sequence (Q12866 whole entry, looked up): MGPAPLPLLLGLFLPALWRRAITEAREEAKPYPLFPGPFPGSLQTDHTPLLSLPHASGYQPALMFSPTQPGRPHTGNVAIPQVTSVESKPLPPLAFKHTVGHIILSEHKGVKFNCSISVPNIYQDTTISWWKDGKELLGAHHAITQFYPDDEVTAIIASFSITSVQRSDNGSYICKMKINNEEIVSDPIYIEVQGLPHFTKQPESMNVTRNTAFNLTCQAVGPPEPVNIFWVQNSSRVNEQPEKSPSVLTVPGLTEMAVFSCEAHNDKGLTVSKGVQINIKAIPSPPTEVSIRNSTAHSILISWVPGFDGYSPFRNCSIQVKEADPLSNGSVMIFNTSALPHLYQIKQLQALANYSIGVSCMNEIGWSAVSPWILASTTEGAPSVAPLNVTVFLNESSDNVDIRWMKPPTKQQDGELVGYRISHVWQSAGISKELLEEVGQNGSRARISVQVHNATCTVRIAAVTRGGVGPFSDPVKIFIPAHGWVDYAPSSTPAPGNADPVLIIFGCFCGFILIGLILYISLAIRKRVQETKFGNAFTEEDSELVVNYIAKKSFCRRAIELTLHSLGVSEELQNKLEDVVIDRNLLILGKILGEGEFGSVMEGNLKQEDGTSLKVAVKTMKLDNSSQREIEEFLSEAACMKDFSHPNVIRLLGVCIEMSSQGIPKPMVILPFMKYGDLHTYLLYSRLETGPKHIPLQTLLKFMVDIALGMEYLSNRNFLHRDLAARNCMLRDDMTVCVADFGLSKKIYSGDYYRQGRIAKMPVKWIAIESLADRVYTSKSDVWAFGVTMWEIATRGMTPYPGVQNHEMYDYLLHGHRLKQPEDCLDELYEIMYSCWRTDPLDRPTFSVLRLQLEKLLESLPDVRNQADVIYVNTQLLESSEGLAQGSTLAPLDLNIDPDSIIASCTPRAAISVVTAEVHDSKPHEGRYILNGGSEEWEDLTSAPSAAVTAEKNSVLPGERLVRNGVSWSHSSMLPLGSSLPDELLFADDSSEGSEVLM
test: phosphorylation enrichment, bacterial display (enrichment ratio); higher = better substrate or ligand; peptides without Tyr show the background
Label no if phosphorylation enrichment falls below 0.5; label yes in every other case.

| chain | qualitative-label |
| --- | --- |
| SGASGYSATST [CERT1_Y143] | no |

Answer whether phosphorylation enrichment of EDGRLYAVKCS [PKMYT1_Y136_R140C] is greater than or equal to 0.5.
yes

Answer whether phosphorylation enrichment of EPVSDYINANV [PTPN11_Y304_I309V] is greater than or equal to 0.5.
no

Answer whether phosphorylation enrichment of FGGLRYGFGGL [KRTAP20-2_Y13_V17G_YF] is greater than or equal to 0.5.
no

* * *

assay-target: SHP2-C SH2;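 also: peptide library displayed on the E. coli surface as eCPX fusions, selected cells deep-sequenced, score is each peptide's frequency after selection divided by its frequency in the input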
test: SH2 binding enrichment of the phosphorylated peptide, bacterial display (enrichment ratio); higher = better substrate or ligand; peptides without Tyr show the background
measured-endpoint: SH2 binding enrichment
Write the value as a bare number.

Here are 5 sequences together with their reported answers.
| chain | assay-target | SH2 binding enrichment |
| --- | --- | --- |
| ERTIEYLEEVA [HADHA_Y239] | SHP2-C SH2 | 0.637 |
| NHFKIHNLCAE [PTEN_Y68_Y68H_YF] | SHP2-C SH2 | 0.751 |
| TRVMEYISRLD [CLTCL1_Y1043] | SHP2-C SH2 | 0.931 |
| PGQAAYQKVVA [HBB_Y131_V127G] | SHP2-C SH2 | 0.615 |
| SDVCMYRKNIF [SYNE2_Y570_YF] | SHP2-C SH2 | 0.74 |

Check SHP2-C SH2 data and give SH2 binding enrichment for LDFNEYFRGLN [HPRT1_Y198_D201G_YF] .
1.08

Check SHP2-C SH2 data and give SH2 binding enrichment for NYNPNYCFAGK [ALK_Y1096_D1091N] .
0.878

Check SHP2-C SH2 data and give SH2 binding enrichment for LSPNMYNSKFW [TARSL2_Y457_L461F] .
0.486

Check SHP2-C SH2 data and give SH2 binding enrichment for CNTIHYNYMCN [TP53_Y234_T230N] .
4.68

Check SHP2-C SH2 data and give SH2 binding enrichment for HAVYIYDICHV [TWNK_Y508_V507I] .
0.979

Check SHP2-C SH2 data and give SH2 binding enrichment for QYQEKYKQVEQ [HCN4_Y531] .
0.971

Check SHP2-C SH2 data and give SH2 binding enrichment for GGSDRYGSLRP [MYLK_Y846] .
0.562

Check SHP2-C SH2 data and give SH2 binding enrichment for FSVDGYDSSVR [KCNQ1_Y461] .
0.727

Check SHP2-C SH2 data and give SH2 binding enrichment for AKKKMYSLKTK [AGXT_Y231_R233L] .
1.51

* * *

assay-target: MERTK (UniProt Q12866)
test: phosphorylation enrichment, bacterial display (enrichment ratio); higher = better substrate or ligand; peptides without Tyr show the background
Label NOT MET if phosphorylation enrichment falls below 0.6; label MET in every other case.

Please review the entries below; each comes with its answer.
| chain | qualitative-label |
| --- | --- |
| ETELPYQELQG [TYROBP_Y91_S89L] | NOT MET |
| FETNVYVDKNL [PTCHD3_Y688_K685T] | NOT MET |
| PPKFFDTRKLL [CYBB_Y41_Y41D] | MET |
| VHNLDYFKKTT [FGFR3_Y647_YF] | NOT MET |
| LKKKQYTSIHH [APP_Y728] | NOT MET |

Answer whether phosphorylation enrichment of EDASEYFENFI [PARP4_Y214_F215Y_YF] is greater than or equal to 0.6.
NOT MET

Answer whether phosphorylation enrichment of NFNPNYCFAGK [ALK_Y1096_D1091N_YF] is greater than or equal to 0.6.
MET

* * *

assay-target: EPHB1 (UniProt P54762)
Sequence (P54762 whole entry, looked up): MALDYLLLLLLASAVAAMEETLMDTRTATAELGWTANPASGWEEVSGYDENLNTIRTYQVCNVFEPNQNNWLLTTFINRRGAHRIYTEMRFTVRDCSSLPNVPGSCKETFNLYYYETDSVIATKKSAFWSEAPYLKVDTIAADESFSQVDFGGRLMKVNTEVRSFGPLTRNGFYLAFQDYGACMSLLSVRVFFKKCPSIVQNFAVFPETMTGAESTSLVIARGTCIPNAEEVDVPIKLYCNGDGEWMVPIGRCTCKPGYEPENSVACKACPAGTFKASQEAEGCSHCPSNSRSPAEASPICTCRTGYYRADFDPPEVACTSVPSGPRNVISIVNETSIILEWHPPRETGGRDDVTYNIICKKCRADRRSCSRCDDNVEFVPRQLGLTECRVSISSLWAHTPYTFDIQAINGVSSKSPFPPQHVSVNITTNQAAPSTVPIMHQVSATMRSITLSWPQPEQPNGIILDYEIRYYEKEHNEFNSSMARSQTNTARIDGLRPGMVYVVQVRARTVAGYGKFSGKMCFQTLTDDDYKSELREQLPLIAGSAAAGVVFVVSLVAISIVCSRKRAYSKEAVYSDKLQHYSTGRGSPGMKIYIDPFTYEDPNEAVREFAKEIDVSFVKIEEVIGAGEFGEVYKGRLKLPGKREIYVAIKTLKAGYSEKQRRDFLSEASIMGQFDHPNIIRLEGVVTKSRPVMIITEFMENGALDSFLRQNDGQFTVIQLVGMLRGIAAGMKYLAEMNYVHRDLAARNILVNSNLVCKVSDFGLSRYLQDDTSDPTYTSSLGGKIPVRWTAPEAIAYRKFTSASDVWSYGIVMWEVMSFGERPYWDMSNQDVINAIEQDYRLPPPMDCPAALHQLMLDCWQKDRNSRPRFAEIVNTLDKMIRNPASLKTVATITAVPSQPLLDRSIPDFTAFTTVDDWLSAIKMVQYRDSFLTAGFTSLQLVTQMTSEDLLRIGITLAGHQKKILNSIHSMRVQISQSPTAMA
test: phosphorylation enrichment, bacterial display (enrichment ratio); higher = better substrate or ligand; peptides without Tyr show the background
measured-endpoint: phosphorylation enrichment
Write the value as a bare number.

| chain | assay-target | phosphorylation enrichment |
| --- | --- | --- |
| PPKFFDTRKLL [CYBB_Y41_Y41D] | EPHB1 (UniProt P54762) | 0.383 |
| TSESSYFKSLN [NGEF_Y288_A286S_YF] | EPHB1 (UniProt P54762) | 0.433 |
| CTTIHYMFMCN [TP53_Y234_N235M_YF] | EPHB1 (UniProt P54762) | 0.608 |
| HKANEYYPVVI [ADAMTS18_Y764_L769I] | EPHB1 (UniProt P54762) | 1.01 |

Read the entry LTKQEYDEAGP [ACTA1_Y364_I359L] and write its reported phosphorylation enrichment.
0.696

Read the entry NNTFLYQLVFD [EXO1_Y284] and write its reported phosphorylation enrichment.
5.34

* * *

Overview of reported phosphorylation enrichment across a group of sequences:
assay-target: Jak2 (UniProt O60674)
test: phosphorylation enrichment, bacterial display (enrichment ratio); higher = better substrate or ligand; peptides without Tyr show the background
Write the value as a bare number.

Here are 10 sequences together with their reported answers.
| chain | phosphorylation enrichment |
| --- | --- |
| GSRGKYSSGFC [ATM_Y332_R337C] | 0.545 |
| LPIQTYSALNF [DES_Y423] | 1.27 |
| ANNPLYKEVTS [ITGB3_Y773_A776V] | 0.691 |
| ERSMSYSDESR [SMG1_Y143] | 0.876 |
| FEEVVYQAMEE [TACC3_Y684] | 1.35 |
| FFRKVYHLASV [RBL1_Y796_YF] | 0.713 |
| RIFDFYSARKT [STOX1_Y858_A863T_YF] | 0.417 |
| MFFSTYDRDND [FGB_Y408] | 1.03 |
| GVRLYYRVMES [RB1_Y454] | 1.02 |
| SDVCMYRKNIF [SYNE2_Y570_YF] | 0.931 |

Read the entry RTLSEYARRHV [RERE_Y1259_P1262R] and write its reported phosphorylation enrichment.
0.596

Read the entry RGEAVYSRDCV [XPC_Y676] and write its reported phosphorylation enrichment.
1.01

Read the entry QVKEQYQDVPM [PKP2_Y659_K654Q] and write its reported phosphorylation enrichment.
1.12

Read the entry DGQVNYEGFVQ [CALM1_Y139_E141G] and write its reported phosphorylation enrichment.
1.04

* * *

Overview of reported phosphorylation enrichment across a group of sequences:
assay-target: EPHB1 (UniProt P54762)
test: phosphorylation enrichment, bacterial display (enrichment ratio); higher = better substrate or ligand; peptides without Tyr show the background
Write the value as a bare number.

Here are 3 sequences together with their reported answers.
| chain | assay-target | phosphorylation enrichment |
| --- | --- | --- |
| DCAAIYGNEPE [AKR1A1_Y50] | EPHB1 (UniProt P54762) | 0.612 |
| CTTTHYNFMCN [TP53_Y234_I232T_YF] | EPHB1 (UniProt P54762) | 0.397 |
| MSPPGYKLVTG [GJA1_Y286] | EPHB1 (UniProt P54762) | 0.667 |

Read the entry NAPNSYGRRLI [CDKN2A_Y44_P48L] and write its reported phosphorylation enrichment.
0.372

Read the entry FHLLPYTIRAM [PARS2_Y93_V95I_YF] and write its reported phosphorylation enrichment.
0.504

Read the entry MGSYNYLGFAW [SPTLC2_Y178_R183W] and write its reported phosphorylation enrichment.
3.69

Read the entry PSPMPYACCQM [FOXL2_Y215_S217C] and write its reported phosphorylation enrichment.
0.663

Read the entry FSLIHYAGIVD [MYH7_Y582] and write its reported phosphorylation enrichment.
0.503

Read the entry PVFEVYPLLNC [GATA1_Y78_Q76E] and write its reported phosphorylation enrichment.
0.742

Read the entry IYETDYYRKGG [INSR_Y1189] and write its reported phosphorylation enrichment.
0.645

Read the entry LAGRFYALKSM [CKB_Y174_YF] and write its reported phosphorylation enrichment.
0.677

Read the entry VSFDEYRFRSV [CFTR_Y515_YF] and write its reported phosphorylation enrichment.
0.519

Read the entry RHYVYYYSYLL [PTEN_Y177_R173H] and write its reported phosphorylation enrichment.
2.69

Read the entry LPKEQYLFTKE [AFG3L2_Y614_YF] and write its reported phosphorylation enrichment.
1.2

Read the entry IEELTYIIKQD [STX5_Y137] and write its reported phosphorylation enrichment.
0.55

Read the entry QQMGTYGVRAA [ICAM2_Y260_R256Q] and write its reported phosphorylation enrichment.
0.281

Read the entry EPAVLYNLKDR [MYH7_Y103] and write its reported phosphorylation enrichment.
0.411

Read the entry GGQSVYHVNLH [HINT1_Y109_H112N] and write its reported phosphorylation enrichment.
0.495
